- method: Selectivity index, ratio of CC50 for human HepG2A16 cells to IC50 for GFP-fused Plasmodium berghei sporozoites infected in human HepG2A16 cells
- Type: toxicity, cell-based
- test_context: read-out: Ratio CC50/IC50
Cut-off 2 on selectivity ratio, inclusive. At or above means TRUE; below means FALSE.

Evaluate O=[N+]([O-])c1ccc(N2CCC(NCCC(O)c3ccc(F)c4ccccc34)CC2)c(C(F)(F)F)c1 (stereo in doubt; 8) : selectivity ratio at minimum 2?
FALSE

Evaluate N#Cc1ccc(N2CCC(NCCC(O)c3ccc(F)c4ccccc34)CC2)c(C(F)(F)F)c1 (stereo in doubt; 72) : selectivity ratio at minimum 2?
TRUE

Evaluate COc1cc(NC(C)CCCN)c2ncccc2c1 (stereo unspecified) : selectivity ratio at minimum 2?
TRUE

Evaluate O=[N+]([O-])c1ccc(N2CCC(NCCC(O)c3ccc(F)cc3)CC2)c(C(F)(F)F)c1 (stereo unspecified) : selectivity ratio at minimum 2?
FALSE

Evaluate OC(CCN1CCN(C(c2ccccc2)c2ccccc2)CC1)c1ccc(F)c2ccccc12 (stereo unspecified) : selectivity ratio at minimum 2?
TRUE

Evaluate N#Cc1ccc(N2CCC(NCCC(O)c3ccc(F)c4ccccc34)CC2)c(Cl)c1 (stereo unspecified) : selectivity ratio at minimum 2?
TRUE

All figures here come from ChEMBL document CHEMBL4152256.
